Collected normalized growth values appear next to each entry.
experiment: chemical genetic growth profiling, strain panel (AID 1159580);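 further: tested at 20 µM; growth read once vehicle control cultures reached saturation at 30 °C; 1 = growth at the plate median or of vehicle wells; lower values mean less growth of the strain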
experimental.context: S. cerevisiae deletion strains, growth OD, locus YPR141C, strain kar3, hits give low values
The campaign covered roughly 5,500 compounds. About 2,000 (36%) were called active. Roughly 18% stayed inconclusive and do not appear here. The list shows a part of the results.
// response body must contain only the number

Request: Name the recorded normalized growth for O=[N+]([O-])/N=C1/NCCN1Cc1ccc(Cl)cc1 .
Response: 0.988

Request: Given the entry CCNc1nc(Cl)nc(NC(C)C)n1 , report its measured normalized growth.
Response: 1.03

Request: Which normalized growth is listed for COc1cc2ccc(=O)oc2c(OC)c1OC ?
Response: 1.02

====

experiment: chemical genetic growth profiling, strain panel (AID 1159580)
experimental.context: S. cerevisiae deletion strains, growth OD, locus YHR129C, strain ARP1, hits give low values
Hit rate of the full screen: of about 5,500 compounds, about 2,000 (36%) were called active. About 18% were inconclusive and are not listed. The list shows a part of the results.
readout: normalized growth
Give your answer as a number; write no unit.

A selection of reference data follows.
{"columns": ["molecule", "value.observed"],
 "data": [
  ["CN(C)c1nc(N(C)C)nc(N(C)C)n1", 1.01],
  ["O=c1cc(-c2ccc(O)cc2)oc2cc(O[C@@H]3O[C@H](CO)[C@@H](O)[C@H](O)[C@H]3O[C@@H]3OC[C@](O)(CO)[C@H]3O)cc(O)c12", 1.01],
  ["CSCCC(NC=O)C(=O)NC(CC(C)C)C(=O)NC(Cc1ccccc1)C(=O)O (stereo unspecified)", 1.01],
  ["CCOC(=O)C1=C(C)NC(C)=C(C(=O)OC)C1c1cccc([N+](=O)[O-])c1 (stereo unspecified)", 1.01],
  ["CCS(=O)(=O)CCn1c([N+](=O)[O-])cnc1C", 1.01],
  ["Cn1c([N+](=O)[O-])cnc1COC(N)=O", 1],
  ["COc1cc2ccc(=O)oc2c2ccoc12", 1],
  ["O=C1OC(=O)C2C3CCC(O3)C12 (stereo unspecified)", 1.03]
]}

Request: Look up normalized growth: CCCCCN=C(N)N/N=C\c1c[nH]c2ccc(OC)cc12
Response: 0.999

Request: Could you tell me which normalized growth is on file for C[C@]12CCC3c4ccc(O)cc4CCC3C1CC[C@@H]2OC(=O)CCC1CCCC1 (stereo partly specified) ?
Response: 0.992

Request: For COc1ccc2c(=O)c(CC(=O)O)coc2c1 , what is its reported normalized growth?
Response: 1

====

experiment: chemical genetic growth profiling, strain panel (AID 1159580)
experimental.context: S. cerevisiae deletion strains, growth OD, locus YIL125W, strain kgd1, hits give low values
Among all 5,500 compounds or so, about 2,000 (36%) were called active. Another 18% or so got no clear call; they are omitted. This is one part of the list.
Each record here notes measured normalized growth.
Hey, just send me the number, nothing else.

{"columns": ["compound", "normalized growth"],
 "data": [
  ["c1coc(CNc2ncnc3nc[nH]c23)c1", 0.988],
  ["CCCc1nc(C(C)(C)O)c(C(=O)OCc2oc(=O)oc2C)n1Cc1ccc(-c2ccccc2-c2nn[nH]n2)cc1", 0.989],
  ["CN1CCN(CCCN2c3ccccc3Sc3ccc(Cl)cc32)CC1", 0.958]
]}

# evaluate next
Request: Quick one: normalized growth of CC(C(=O)O)c1ccc(N2Cc3ccccc3C2=O)cc1 (centres undefined) ?
Response: 0.984

====

experiment: chemical genetic growth profiling, strain panel (AID 1159580);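 further: tested at 20 µM; growth read once vehicle control cultures reached saturation at 30 °C; 1 = growth at the plate median or of vehicle wells; lower values mean less growth of the strain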
experimental.context: S. cerevisiae deletion strains, growth OD, locus YHR082C, strain KSP1, hits give low values
About 2,000 (36%) of roughly 5,500 compounds were called active. Inconclusive results (about 18%) are left out. This is one part of the list.
Reported normalized growth by item:
API note: the answer field is a bare number with no unit suffix.

Here are 3 compounds together with their reported answers.
{"columns": ["compound", "value.observed"],
 "data": [
  ["O=C1OC(Nc2ccccc2SCc2ccccc2Cl)c2ccccc21 (centres undefined)", 0.948],
  ["COc1ccc(-c2cc(NS(=O)(=O)c3cccc(F)c3)n(-c3ccc(Cl)c(Cl)c3)n2)cc1", 0.873],
  ["Cc1nc(C(F)(F)F)ccc1C(=O)Sc1nnc(-c2ccc(C(F)(F)F)nc2C)o1", 0.962]
]}

Continue with the compound presented below.
Request: // returns reported normalized growth for input CCOC(=O)C(NC(C)=O)(Nc1ccc(F)c(Cl)c1)C(F)(F)F (centres undefined)
Response: 1.14

====

Reported normalized growth by item:
experiment: chemical genetic growth profiling, strain panel (AID 1159580);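 further: tested at 20 µM; growth read once vehicle control cultures reached saturation at 30 °C; 1 = growth at the plate median or of vehicle wells; lower values mean less growth of the strain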
experimental.context: S. cerevisiae deletion strains, growth OD, locus YLR058C, strain SHM2, hits give low values
The campaign covered roughly 5,500 compounds. About 2,000 (36%) were called active. Roughly 18% stayed inconclusive and do not appear here. The list shows a part of the results.
Please respond with just the number, no unit label.

Example entries begin here.
{"columns": ["molecule", "normalized growth"],
 "data": [
  ["O=C(CCCN1CC=C(n2c(=O)[nH]c3ccccc32)CC1)c1ccc(F)cc1", 0.967],
  ["CCOC(=O)C1=C(C)NC(C)=C(C(=O)OC)C1c1cccc([N+](=O)[O-])c1 (configuration not stated)", 0.999],
  ["C[C@H]1C(=O)O[C@@H]2CCN3CC=C(COC(=O)[C@](C)(O)[C@]1(C)O)[C@H]23", 0.99],
  ["CC(=O)O[C@@H]1CC2C(C)(C)C(=O)[C@@H]3O[C@@H]3[C@]2(C)C2CC[C@]3(C)C(=CC(=O)O[C@H]3c3ccoc3)[C@@]21C (some centres not stated)", 0.974],
  ["Cn1c([N+](=O)[O-])cnc1COC(N)=O", 1.01]
]}

Request: Please give the measured normalized growth for this molecule: CC(=O)OC1CCC23C(=O)OC45CCC(C6=CC(=O)OC6)C4(C)CCC2C5CCC3(O)C1 (configuration not stated)
Response: 1.02

Request: Requested field: normalized growth. Item: CN1Cc2c(N)cccc2C(c2ccccc2)C1 (configuration not stated)
Response: 1

Request: Give its normalized growth value. Item: COc1ccc2c(=O)c(CC(=O)O)coc2c1
Response: 0.999

Request: Query: normalized growth; subject: CNC(=O)CSP(=S)(OC)OC
Response: 1.01

====

experiment: chemical genetic growth profiling, strain panel (AID 1159580);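 further: tested at 20 µM; growth read once vehicle control cultures reached saturation at 30 °C; 1 = growth at the plate median or of vehicle wells; lower values mean less growth of the strain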
experimental.context: S. cerevisiae deletion strains, growth OD, locus YFL029C, strain CAK1
Among all 5,500 compounds or so, about 2,000 (36%) were called active. Not shown: some 18% with an inconclusive outcome. Rule as the data show it: active = normalized growth mostly below about 0.91 (no sharp cut-off); inconclusive = no clear call, values can overlap the other calls; inactive = mostly above about 0.92. This is one part of the list.
Write down one outcome, taken from active, inactive

Worked examples, 6 compounds total:
{"columns": ["compound", "class.assignment"],
 "data": [
  ["O=C(O)c1cccc2cccc(C(=O)O)c12", "active"],
  ["N/C(=N/OC(=O)c1ccccc1Cl)c1ccc2nonc2c1", "inactive"],
  ["O=C(Oc1ccc(C2SCCS2)cc1)c1cccs1", "inactive"],
  ["O=C1OC(Nc2ccccc2SCc2ccccc2Cl)c2ccccc21 (centres undefined)", "inactive"],
  ["O=C(N/N=C\\c1cc(Cl)cc(Cl)c1O)c1ccccc1Oc1ccccc1", "inactive"],
  ["COc1cccc(C(=O)C(C#N)=C(SC)SC)c1", "active"]
]}

Request: In this assay, the call recorded for CC(/C=C/c1ccccc1)=N/OC(=O)c1ccccc1Cl was what?
Response: inactive

Request: Name the outcome recorded for CN(C)c1nc(=S)ss1 in the assay.
Response: active

Request: Tell me the recorded outcome of this test for COC(=O)c1ccc(Oc2c(C(F)(F)F)oc3cc(O)ccc3c2=O)cc1 .
Response: inactive

Request: Query: recorded result category for Oc1ccc(-n2nnnc2SCc2ccc(OC(F)(F)F)cc2)cc1 in this test
Response: inactive

Request: What outcome does the record of this test show for CCC1(c2ccccc2)OC(c2cc(Cl)cc(Cl)c2O)Nc2ccccc21 (centres undefined) ?
Response: inactive

Request: Hi, sorry to bother you, what did the test record for Cc1c(Cl)cccc1N=C1SCC(=O)N1Cc1ccco1 ?
Response: inactive

Request: // param item: CCCCc1ccc(N=CNO)c(C)c1 ; yields the recorded call
Response: inactive

Request: Could you kindly confirm the outcome this assay logged for CCOC(=O)C(NC(C)=O)(Nc1ccc(F)c(Cl)c1)C(F)(F)F (centres undefined) ?
Response: inactive

Request: For this compound, state the assay outcome: Nc1ccc(N2CCN(c3ccc(C(F)(F)F)cn3)CC2)nc1
Response: inactive

Request: Recorded test outcome, item N#CC(C#N)=NNc1ccc(C(F)(F)F)cc1
Response: active

Request: Would you mind telling me which call this test gave O=C(OCc1ccc(Oc2ccc(Cl)cc2Cl)c([N+](=O)[O-])c1)c1ccc([N+](=O)[O-])o1 ?
Response: inactive

Request: Tell me the recorded outcome of this test for CC(NC(=S)Nc1ccc(Oc2ccc(Cl)cc2)cc1)c1ccccc1 (centres undefined) .
Response: inactive

Request: What classification did Cc1oc(-c2ccc(Cl)cc2)cc1C(=O)N1CCN(c2ccc(C(F)(F)F)cn2)CC1 end up with in this test?
Response: inactive

Request: Please state the recorded outcome for this compound: N/C(=N/OC(=O)c1ccccc1Cl)c1cccc(CS(=O)(=O)c2ccc(Cl)cc2)c1
Response: inactive

Request: Tell me the recorded outcome of this test for CCOC(=O)C1C(c2ccc(Br)cc2)C(C(=O)OCC)C(O)(C(F)(F)F)NC1(O)C(F)(F)F (centres undefined) .
Response: inactive

Request: Recorded test call requested for Cc1c(C(=O)NCCNc2ccc(C(F)(F)F)cc2[N+](=O)[O-])cnn1-c1ccc(F)cc1
Response: inactive

Request: Look up the recorded call for Cc1nc(C(F)(F)F)ccc1-c1nnc(SC(=O)c2ccc(Cl)cc2)o1 in this test.
Response: active

Request: Hi, do you know how CN(NC(=S)Nc1cc(Cl)ccc1Cl)c1ccc(C(F)(F)F)cc1[N+](=O)[O-] came out in this test?
Response: inactive

Request: How was FC(F)(F)c1ccc(NC(=S)Nc2ccc(C(F)(F)F)cc2Cl)c(Cl)c1 classified in this test?
Response: inactive

Request: Per the records of this test, what outcome belongs to Nc1ccccc1C(=O)N/N=C\c1cc(Cl)cc(Cl)c1O ?
Response: inactive

Request: Hi, sorry to bother you, what did the test record for CC(Oc1ccc(Cl)cc1Cl)C(=O)NNC(=S)Nc1ccccc1 (centres undefined) ?
Response: inactive
